- test_name: soluble on expression in E. coli; label from the status in PepcDB or PDB records

residue_codes	soluble on expression in E. coli
AVYGIDAMNPSSRDDFTEFGKLLKDKITQYEKSLYYASFLEVLVRDVCISLEIDDLKKITNSLTVLCSEKQKQEKQSKAK	soluble
MELERIVSAALLAFVQTHLPEADLSGLDEVIFSYVLGVLEDLGPSGPSEENFDMEAFTEMMEAYVPGFAHIPRGTIGDMMQKLSGQLSDARNKENLQPQSSGVQGQVPISPEPLQRPEMLKEETRSSAAAAADTQDEATGAEEELLPGVDVLLEVFPTCSVEQAQWVLAKARGDLEEAVQMLVEGKEEGPAAWEGPNQDLPRRLRGPQKDELKSFILQKYMMVDSA	soluble

* * *

- test_name: soluble on expression in E. coli; label from the status in PepcDB or PDB records

residue_codes	soluble on expression in E. coli
SPLPVALQTRLAKRGILKHLEPEPEEEIIAEDYDDDPVDYEATRLEGLPPSWYKVFDPSCGLPYYWNADTDLVSWLSPHDPNSVVTKSAKKLRSSNADAEEKLDRSHDKSDRGHDKSDRSHEKLDRGHDKSDRGHDKSDRDRERGYDKVDRERERDRERDRDRGYDKADREEGKERRHHRREELAPYPKSKKAVSRKDEELDPMDPSSYSDAPRGTWSTGLPKRNEAKTGADTTAAGPLFQQRPYPSPGAVLRANAEASRTKQQD	soluble
LANKQIESRIIQFDVEFPSDEVAKQLSIEKTVPVYHIIRLRKVEGEPYVIEETYMPSNVISELNEDVLHGSVYRHITETLKLTIAGSHRKIRADKSSALDREYLECAPDDPVLEVEQVAFLNTGEPFEYSFARHRYDKFVFSSVHIRK	not soluble
MPVDLSKWSGPLSLQEVDEQPQHPLHVTYAGAAVDELGKVLTPTQVKNRPTSISWDGLDSGKLYTLVLTDPDAPSRKDPKYREWHHFLVVNMKGNDISSGTVLSDYVGSGPPKGTGLHRYVWLVYEQDRPLKCDEPILSNRSGDHRGKFKVASFRKKYELRAPVAGTCYQAEWDDYVPKLYEQLSGK	soluble
MSLVDMVNRPYERAFEQHALANPDVLCISADLTSSCEIDKFRDNHPDQFLSMGMAEQNMMSFCGGLGLAGFRPFVHTFGVFTYRRPYDQLMASIAYPRRKVRIMGFLPGITTPGGMTHQAIEDIAVMRSMPNMTILETGDATEVESICAAADSIDGPVYCRVLRGSVPRLFDTPIKVGEMREISLGDDVLIVTAGITTEEAMRATRALEAAGVSVRHLHLHTIKPFDAGALLDHIGAVRGGVITLENHVTEGGIGSLVAEVMADNGIGKKLRRLGLKDTYAHGGSRAYLMRYYGLDALALTRGVEDLLGQPLGITEEDLAQARVEAVHSLAKAEGEGHHHHHH	not soluble

* * *

- test_name: soluble on expression in E. coli; label from the status in PepcDB or PDB records
metric: soluble on expression in E. coli

residue_codes	meas_value
MAEEQQNSDQSNGGNVIPTPEEVATFLHKTVEEGGWEKCWEEEITPWDQGRATPLIVHLVDTSSLPLGRALVPGCGGGHDVVAMASPERFVVGLDISESALAKANETYGSSPKAEYFSFVKEDVFTWRPTELFDLIFDYVFFCAIEPEMRPAWAKSMYELLKPDGELITLMYPITDHVGGPPYKVDVSTFEEVLVPIGFKAVSVEENPHAIPTRKGKEKLGRWKKINLEHHHHHH	soluble
MKKAKLGKSDLQVFPIGLGTNAVGGHNLYPNLNEETGKELVREAIRNGVTMLDTAYIYGIGRSEELIGEVLREFNREDVVIATKAAHRKQGNDFVFDNSPDFLKKSVDESLKRLNTDYIDLFYIHFPDEHTPKDEAVNALNEMKKAGKIRSIGVSNFSLEQLKEANKDGLVDVLQGEYNLLNREAEKTFFPYTKEHNISFIPYFPLVSGLLAGKYTEDTTFPEGDLRNEQEHFKGERFKENIRKVNKLAPIAEKHNVDIPHIVLAWYLARPEIDILIPGAKRADQLIDNIKTADVTLSQEDISFIDKLFAPG	soluble

This collection of values is drawn from the DeepSol protein solubility set.
